Tested on: PC-3 prostate
Assay: NCI tumour cell line growth inhibition, 48 h
Where a SMILES comes first, the peptide text is derived from it. Bridges are numbered along the chain shown (N, C = ends).
Overview of recorded TGI for various compounds
// units = µM; emit number, no label

Known TGI results, listed for orientation:
# compound, unit.annotation, recorded.result
records = [
    ("CCC(C)C1NC(=O)C(CC(C)C)NC(=O)C(C(C)C)NC(=O)C2CSSCC(NC1=O)C(=O)N2 (centres undefined) (cyclo(CCVLI); disulfide 1-2; configuration not given here)", "µM", 0.329),
    ("NCCNc1ccc(NCCN)c2c1C(=O)c1c(O)ccc(O)c1C2=O", "µM", 1.64),
    ("O=C(/C=C/c1ccc(O)c(O)c1)c1ccc(O)cc1O", "µM", 52.6),
]

// field: TGI; key: `COC1=C(OC)C(=O)C(C/C=C/c2c(Cl)nc3sccn23)=C(C)C1=O` ; value = 31.6

* * *

System: SK-MEL-28 melanoma
Assay: NCI tumour cell line growth inhibition, 48 h
Overview of recorded TGI for various compounds

Known TGI results, listed for orientation:
# compound, TGI
rows = [
    ("CC(=O)OC(C)(C)C[N+](=O)[O-]", "> 100 µM"),
    ("O=C(O)c1ccc(Nc2nc3ccc(C(F)(F)F)cc3nc2C(=O)O)cc1", "> 100 µM"),
]

// field: TGI; key: CCCCCCCCC1C(C)c2c([nH]c3ccccc23)C2C(=O)N(c3ccccc3)C(=O)C21 (stereo unspecified) ; value = 34.3 µM

// field: TGI; key: `Cc1cnc2c(c1)C(=O)N(c1ccc(Br)cc1)S2(=O)=O` ; value = > 100 µM

// field: TGI; key: c1ccc(N2CCN(CCCN3CCc4c([nH]c5ccccc45)C3c3cccnc3)CC2)cc1 (stereo unspecified) ; value = > 100 µM

// field: TGI; key: `CN(CCCCCCCCNc1ccnc2ccccc12)Cc1ccc(-c2ccc(-c3ccc(C#N)cc3)s2)cc1` ; value = 3.06 µM

// field: TGI; key: `CC(C)(C)c1cc(OCc2n[nH]c(=S)n2N)c(Cl)cc1OCc1n[nH]c(=S)n1N` ; value = > 100 µM

// field: TGI; key: CCCCCC1CC=CC(NC(=O)OCc2ccccc2)C1/C=C/CCCC1OCCO1 (stereo unspecified) ; value = > 100 µM

// field: TGI; key: `COc1ccc(OC)c(CCc2ccccc2CC(=O)O)c1` ; value = > 100 µM

// field: TGI; key: `CCc1c2c(nc3ccc(OC(=O)OCc4ccc(B5OC(C)(C)C(C)(C)O5)cc4)cc13)-c1cc3c(c(=O)n1C2)COC(=O)[C@]3(O)CC` ; value = 7.32 µM

// field: TGI; key: `CCOC(=O)C(C(=O)OCC)S(C)(=O)=O` ; value = > 100 µM

// field: TGI; key: Clc1ccc2c(c1)CC1C[N+]3=C(CCCCC3)C1=C2 (stereo unspecified) ; value = > 100 µM

// field: TGI; key: `COc1cc2c(cc1OC)-c1c(c3ccc([N+](=O)[O-])cc3c(=O)n1CCCN=[N+]=[N-])C2=O` ; value = > 100 µM

// field: TGI; key: `CCN(CC)CCCNC(=O)c1ccccc1Nc1c(Cl)cccc1Cl` ; value = 9.51 µM

// field: TGI; key: `COc1ccc(C(SCCO)(c2ccc(OC)cc2)c2ccc(OC)cc2)cc1` ; value = 38.6 µM

// field: TGI; key: COc1cccc(C2c3cc4c(cc3OC(NNC(N)=O)C2C)OCO4)c1OC (stereo unspecified) ; value = 72.7 µM

* * *

System: HOP-62 NSCLC
Test: NCI tumour cell line growth inhibition, 48 h
recorded.metric: TGI

Known TGI results, listed for orientation:
# molecule, recorded.result
records = [
    ("CCOC(=O)c1c(Br)c(-c2ccc([N+](=O)[O-])cc2)c(Br)n1C", "> 10 µM"),
    ("O=C(CC1(O)C(=O)Nc2c(Cl)cc(Cl)cc21)c1ccc([N+](=O)[O-])cc1 (stereo unspecified)", "> 100 µM"),
    ("CN(CCc1ccccn1)/[N+]([O-])=N/O (tested in a mixture with another compound)", "> 100 µM"),
    ("C[C@@]12C[C@@H](c3ccccc3O1)N1CCCSC1=N2", "> 100 µM"),
    ("O=[N+]([O-])c1cc(C(F)(F)F)cc2c1SC1=Nc3ccccc3CN12", "> 100 µM"),
]

Okay, now this molecule:
Result for `Fc1ccc(-c2c(-c3ccncc3)[nH]c3cccnc23)cc1` , tested on HOP-62 NSCLC, TGI: > 25 µM

* * *

Test system: NCI/ADR-RES ovarian
Experiment: NCI tumour cell line growth inhibition, 48 h
Overview of recorded TGI for various molecules

# molecule, recorded.result
records = [
    ("CN(C)C1(N(C)C)Oc2c(c(=O)n(C)c(=O)n2C)C(c2ccc(F)cc2)C1(F)F (centres undefined)", "> 100 µM"),
]

Result for `CC(C)c1ccc(C(O)(C(=O)O)c2ccc(C(C)C)cc2)cc1` , tested on NCI/ADR-RES ovarian, TGI: > 100 µM

Result for `Nc1n[nH]c(N)n1` , tested on NCI/ADR-RES ovarian, TGI: > 10000 µM

Result for `Cc1cc(C(=O)CC(Cl)=C(Cl)Cl)c(Cl)cc1Cl` , tested on NCI/ADR-RES ovarian, TGI: > 100 µM

* * *

System: NCI-H460 lung
Experiment: NCI tumour cell line growth inhibition, 48 h
recorded.metric: TGI

# compound, subject.of.test, TGI
measured = [
    ("Fc1ccc(-c2c(-c3ccncc3)[nH]c3cccnc23)cc1", "NCI-H460 lung", "> 25 µM"),
]

// field: TGI; key: `O=C(Cn1c2ccc(Br)cc2c2nc3ccccc3nc21)N1CCOCC1` ; value = > 100 µM

// field: TGI; key: `CCOC(=O)C(CCSC)(CCSC)C(=O)OCC` ; value = > 100 µM

* * *

System: SK-MEL-2 melanoma
Assay: NCI tumour cell line growth inhibition, 48 h
Overview of recorded TGI for various compounds

# compound, TGI
measured = [
    ("CC(NNC(=S)N1CCCC1)c1cccnn1 (stereo unspecified)", "> 100 µM"),
]

// field: TGI; key: `N#CCCN(c1ccc(C=Nc2ccc(C(=O)O)cc2)cc1)S(=O)(=O)c1ccccc1` ; value = > 100 µM

// field: TGI; key: Cc1ccc(-c2nc3ccccc3c(=O)n2NC2OC(CO)C(O)C(O)C2O)cc1 (stereo unspecified) ; value = > 100 µM

// field: TGI; key: `COc1cc(Cn2c3ccccc3c3cc(C)cc(OC)c32)cc2c1[nH]c1ccccc12` ; value = > 25 µM

// field: TGI; key: CN(CCc1ccccn1)/[N+]([O-])=N/O (tested in a mixture with another compound) ; value = > 100 µM

// field: TGI; key: `Cc1ccc(C(CCO)CCO)nc1` ; value = > 100 µM

* * *

System: DLD-1 colon
Assay: NCI tumour cell line growth inhibition, 48 h
Overview of recorded TGI for various molecules

# molecule, subject.of.test, recorded.result
rows = [
    ("O=C(CO)CC(=O)C(=O)Nc1cccc(C(F)(F)F)c1", "DLD-1 colon", "> 100 µM"),
]

// field: TGI; key: c1ccc(N2CCN(CCCN3CCc4c([nH]c5ccccc45)C3c3cccnc3)CC2)cc1 (stereo not drawn) ; value = > 100 µM

// field: TGI; key: COC(=O)/C(=N\Nc1nc(=S)[nH]n1N)C(C#N)c1ccc(Cl)cc1 (stereo not drawn) ; value = > 100 µM

* * *

Overview of recorded TGI for various molecules
Test system: HL-60(TB) leukemia
Assay: NCI tumour cell line growth inhibition, 48 h

# molecule, TGI
records = [
    ("COc1c(N2CCCCC2)c2c(=O)c3ccccc3oc2c2c3ccccc3n(C)c12", "> 100 µM"),
]

// field: TGI; key: `Cc1cc(N(CCC#N)CCC#N)ccc1/C=C(\N=[N+]=[N-])C(=O)NC(=O)COc1ccccc1` ; value = > 100 µM

// field: TGI; key: `Fc1ccc(-c2c(-c3ccncc3)[nH]c3cccnc23)cc1` ; value = > 25 µM

// field: TGI; key: `C/C1=C\CC[C@@]2(C)O[C@@H]2C[C@@H]2[C@H](C/C(C)=C/CC1)OC(=O)[C@]21CO1` ; value = > 100 µM

// field: TGI; key: CC(NNC(=S)N1CCCC1)c1cccnn1 (stereo not given) ; value = > 100 µM

* * *

Tested on: K-562 leukemia
Test: NCI tumour cell line growth inhibition, 48 h
recorded.metric: TGI

Known TGI results, listed for orientation:
# compound, subject.of.test, TGI
measured = [
    ("Cc1cc(N(CCC#N)CCC#N)ccc1/C=C(\\N=[N+]=[N-])C(=O)NC(=O)COc1ccccc1", "K-562 leukemia", "> 100 µM"),
    ("C=C1CCCC2OC(OC)CCC12 (stereo not given)", "K-562 leukemia", "> 100 µM"),
    ("CC1OC(OC2C(O)C(OCCc3ccc(O)c(O)c3)OC(CO)C2OC(=O)/C=C/c2ccc(O)c(O)c2)C(O)C(O)C1O (stereo not given)", "K-562 leukemia", "> 100 µM"),
    ("CC(C)(CN1CCCCC1)C(=O)CC(SCCS(=O)(=O)O)c1ccccc1 (stereo not given)", "K-562 leukemia", "29.6 µM"),
    ("Oc1ccccc1CNCc1ccccc1O", "K-562 leukemia", "> 100 µM"),
    ("CC(=O)c1sc2c(c1OC(=O)c1ccccc1)c(=O)n(-c1ccccc1)c(=S)n2-c1ccccc1", "K-562 leukemia", "> 58.3 µM"),
    ("COC(=O)CCc1cc(OC)c2oc(-c3ccc(OC)c(OC)c3)c(CO)c2c1", "K-562 leukemia", "> 100 µM"),
    ("CC1=C(C(=O)Nc2ccccc2C)C(c2ccccc2O)C(C(=O)Nc2ccccc2C)=C(C)N1", "K-562 leukemia", "> 100 µM"),
    ("CCOC1Oc2ccccc2C(=O)/C1=C\\Nc1ccc(C(=O)O)c(O)c1 (stereo not given)", "K-562 leukemia", "> 100 µM"),
]

Okay, now this compound:
// field: TGI; key: `C/C(CC(=O)Nc1cccc([N+](=O)[O-])c1)=N/NC(N)=S` ; value = > 100 µM
